# Tested on: SH-SY5Y cells
# experimental.details: Cytotoxicity in differentiated SH-SY5Y cells (MTT reduction)
# Format: cell-based, human
# details: differentiated SH-SY5Y, 1, 10 and 50 μM, 24 h
endpoint: cellular metabolic activity (MTT reduction), cytotoxicity

O=C(NCCCCCC[P+](c1ccccc1)(c1ccccc1)c1ccccc1)c1ccc(O)c(O)c1 [AntiOxBEN1]: dose-dependent toxicity
O=C(NCCCCCCCC[P+](c1ccccc1)(c1ccccc1)c1ccccc1)c1ccc(O)c(O)c1.[Br-]: dose-dependent toxicity
O=C(NCCCCCCCCCC[P+](c1ccccc1)(c1ccccc1)c1ccccc1)c1ccc(O)c(O)c1.[Br-]: dose-dependent toxicity

====

# target.desc: BChE (Homo sapiens, UniProt P06276)
# Construct: purchased Sigma-Aldrich Química S. A
# Sequence (P06276 29-602, species assumed): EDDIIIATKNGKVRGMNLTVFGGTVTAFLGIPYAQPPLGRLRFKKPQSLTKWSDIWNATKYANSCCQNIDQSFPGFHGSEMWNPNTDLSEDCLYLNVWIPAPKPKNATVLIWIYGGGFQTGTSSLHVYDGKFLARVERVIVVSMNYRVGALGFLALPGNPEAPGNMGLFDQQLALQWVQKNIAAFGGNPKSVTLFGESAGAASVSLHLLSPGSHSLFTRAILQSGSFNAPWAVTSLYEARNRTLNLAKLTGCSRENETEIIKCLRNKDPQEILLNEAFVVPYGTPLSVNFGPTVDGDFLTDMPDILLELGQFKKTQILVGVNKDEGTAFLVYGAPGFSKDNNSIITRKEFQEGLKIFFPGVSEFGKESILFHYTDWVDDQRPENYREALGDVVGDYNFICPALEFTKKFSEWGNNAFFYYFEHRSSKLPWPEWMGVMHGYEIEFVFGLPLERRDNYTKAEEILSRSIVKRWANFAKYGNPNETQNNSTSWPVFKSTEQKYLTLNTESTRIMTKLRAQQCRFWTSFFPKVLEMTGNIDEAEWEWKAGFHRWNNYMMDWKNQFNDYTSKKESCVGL
# experimental.details: biochemical
Catalogue of SI: BChE selectivity index = IC50(AChE)/IC50(BChE) readings, one per entry.
Answer field: number only, no words.

Some compounds with known SI: BChE selectivity index = IC50(AChE)/IC50(BChE) results, for comparison:
O=C(NCCCCCCCC[P+](c1ccccc1)(c1ccccc1)c1ccccc1)c1ccc(O)c(O)c1.[Br-] [Compound 15]: 106
O=C(NCCCCCCCCCC[P+](c1ccccc1)(c1ccccc1)c1ccccc1)c1cc(O)c(O)c(O)c1.[Br-] [Compound 18]: 13
O=C(NCCCCCC[P+](c1ccccc1)(c1ccccc1)c1ccccc1)c1cc(O)c(O)c(O)c1 [AntiOxBEN2]: 86

Now for another entry.
Given the entry O=C(NCCCCCCCC[P+](c1ccccc1)(c1ccccc1)c1ccccc1)c1cc(O)c(O)c(O)c1.[Br-] [Compound 16] , report its measured SI: BChE selectivity index = IC50(AChE)/IC50(BChE). 62

====

# experimental.details: Redox properties by differential pulse and cyclic voltammetry
# Type: physicochemical
# details: physiological pH 7.4, differential pulse voltammetry, glassy carbon electrode
# Ep (oxidation potential) annotations
Give the value in mV but do not write mV after it.

What does the record list as Ep (oxidation potential) for O=C(NCCCCCCCC[P+](c1ccccc1)(c1ccccc1)c1ccccc1)c1cc(O)c(O)c(O)c1.[Br-] ? 121

// Ep (oxidation potential) lookup, key: O=C(NCCCCCCCCCC[P+](c1ccccc1)(c1ccccc1)c1ccccc1)c1cc(O)c(O)c(O)c1.[Br-] 114

Looking for the measured Ep (oxidation potential) of O=C(NCCCCCCCCCC[P+](c1ccccc1)(c1ccccc1)c1ccccc1)c1ccc(O)c(O)c1.[Br-] , can you help? 210

Need Ep (oxidation potential) of O=C(NCCCCCCCC[P+](c1ccccc1)(c1ccccc1)c1ccccc1)c1ccc(O)c(O)c1.[Br-] , thanks. 216

====

# Test system: HepG2 cells
# experimental.details: Cytotoxicity in HepG2 cells (resazurin reduction)
# Assay type: cell-based, human
# details: HepG2, 1, 10 and 50 μM, 48 h
endpoint: cellular metabolic activity (resazurin reduction), cytotoxicity

O=C(NCCCCCC[P+](c1ccccc1)(c1ccccc1)c1ccccc1)c1ccc(O)c(O)c1 [AntiOxBEN1]: dose-dependent toxicity
O=C(NCCCCCCCC[P+](c1ccccc1)(c1ccccc1)c1ccccc1)c1ccc(O)c(O)c1.[Br-]: dose-dependent toxicity
O=C(NCCCCCCCCCC[P+](c1ccccc1)(c1ccccc1)c1ccccc1)c1ccc(O)c(O)c1.[Br-]: dose-dependent toxicity

====

# target.desc: AChE (Electrophorus electricus, UniProt O42275)
# Sequence (O42275 24-633): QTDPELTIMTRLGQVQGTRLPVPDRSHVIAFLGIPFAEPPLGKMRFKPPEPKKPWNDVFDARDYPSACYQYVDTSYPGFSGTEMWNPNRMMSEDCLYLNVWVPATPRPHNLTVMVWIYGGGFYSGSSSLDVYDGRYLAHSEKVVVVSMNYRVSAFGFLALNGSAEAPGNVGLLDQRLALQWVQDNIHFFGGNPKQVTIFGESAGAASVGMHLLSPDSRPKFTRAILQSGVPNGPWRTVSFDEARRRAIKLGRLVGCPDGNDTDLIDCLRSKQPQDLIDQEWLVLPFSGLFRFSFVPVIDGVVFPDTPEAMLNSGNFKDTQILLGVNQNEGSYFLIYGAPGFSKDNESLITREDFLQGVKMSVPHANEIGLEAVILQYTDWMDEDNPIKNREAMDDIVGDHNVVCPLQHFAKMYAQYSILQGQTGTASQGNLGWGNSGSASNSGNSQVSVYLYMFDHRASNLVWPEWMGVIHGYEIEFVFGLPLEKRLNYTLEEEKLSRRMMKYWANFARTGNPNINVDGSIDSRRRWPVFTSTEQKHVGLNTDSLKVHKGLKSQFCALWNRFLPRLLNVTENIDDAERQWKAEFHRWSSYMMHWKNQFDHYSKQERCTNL
endpoint: pKi
Interpret pKi as the negative base-10 log of the concentration measured in mol/L.

Given the compound O=C(NCCCCCCCCCC[P+](c1ccccc1)(c1ccccc1)c1ccccc1)c1cc(O)c(O)c(O)c1.[Br-] , what is its reported pKi? 5.18
